Hello, the source for this data is patent US20220259593A1, in case you need it.

# Test system: K562 CRISPRi cells
# ASSAY PROTOCOL: Perturb-seq pooled growth measurement (sgRNA counts, growth phenotype γ, relative activity)
# Type: cell-based, human
# RECORDED CONDITIONS: pooled growth phenotype γ of the Perturb-seq sgRNA, day 10, K562 CRISPRi cells
MEASURED PARAMETER: gamma_day10
Respond numerically, and do not add a unit to the figure.

Please review the entries below; each comes with its answer.
{"SUBSTANCE": "HSPA5_ + _128003624.23-P1P2_08 (guide GAGCCGAGTGGGCGACGGTG; listed as DNA, chemistry not fully specified)", "gamma_day10": "−0.4435"}
{"SUBSTANCE": "POLR1D_ + _28196016.23-P1_07 (guide GGGAAGCAAGGAGCGACCGA; listed as DNA, chemistry not fully specified)", "gamma_day10": "−0.243"}

Pending substance:
Which measured gamma_day10 value corresponds to DBR1_ + _137893744.23-P1P2_01 (guide GATTGCAGGAGTCTACACCC; listed as DNA, chemistry not fully specified) ?
−0.5474
